target: LCK (Homo sapiens (Human), UniProt P06239); test: In vitro assay: kinase binding to immobilized ligand, captured kinase measured by qPCR
Sequence (P06239 whole entry): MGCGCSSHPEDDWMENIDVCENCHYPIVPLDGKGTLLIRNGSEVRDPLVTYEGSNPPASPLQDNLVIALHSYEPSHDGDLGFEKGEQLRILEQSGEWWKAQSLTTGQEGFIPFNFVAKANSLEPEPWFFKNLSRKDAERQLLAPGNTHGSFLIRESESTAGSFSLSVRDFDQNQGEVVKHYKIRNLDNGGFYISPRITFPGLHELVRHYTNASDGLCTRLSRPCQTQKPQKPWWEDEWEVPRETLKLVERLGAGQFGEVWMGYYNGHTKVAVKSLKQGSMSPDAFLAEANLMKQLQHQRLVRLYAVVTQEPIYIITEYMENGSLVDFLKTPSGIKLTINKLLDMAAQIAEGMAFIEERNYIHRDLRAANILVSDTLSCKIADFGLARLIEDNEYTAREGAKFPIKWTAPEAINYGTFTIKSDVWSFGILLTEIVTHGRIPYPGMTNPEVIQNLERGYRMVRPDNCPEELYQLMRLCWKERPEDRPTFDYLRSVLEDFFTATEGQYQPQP
// IC50 lookup, one value per entry

Worked cases, answers included:
Cc1ccc(O)c(C)c1-n1c(N)c(C(N)=O)c2cnc(CCc3cscn3)c(F)c21 : < 50 nM
Cc1cc2ccoc2c(C)c1-n1c(N)c(C(N)=O)c2cc(Cl)cnc21 : 100 to 1000 nM
Cc1ccc(O)c(C)c1-n1c(N)c(C(N)=O)c2cnc(C3CC3)c(F)c21 : < 50 nM
Cc1c(O)cc(F)c(C)c1-n1c(N)c(C(N)=O)c2cc(Cl)cnc21 [Compound 565] : < 50 nM
Cc1c(O)cc(F)c(C)c1-n1c(N)c(C(N)=O)c2cnc(C3CC3)c(F)c21 (atropisomer, axis not shown) : < 50 nM
Cc1ccc(O)c(C)c1-n1c(N)c(C(N)=O)c2cnc(/C=C/C3CC3)nc21 : < 50 nM
Cc1ccc(O)c(C)c1-n1c(N)c(C(N)=O)c2cnc(CCc3cncs3)c(F)c21 : < 50 nM
Cc1ncc2c(C(N)=O)c(N)n(-c3c(C)ccc(O)c3C)c2n1 (single isomer, unassigned) [Compound 577] : < 50 nM
Cc1c(O)cc(F)c(C)c1-n1c(N)c(C(N)=O)c2cc(Cl)cnc21 (single isomer, unassigned) [Compound 576] : 100 to 1000 nM
Cc1ncc2c(C(N)=O)c(N)n(-c3c(C)c(O)cc(F)c3C)c2n1 (atropisomer, axis not shown) [Compound 607] : > 1000 nM

I have this compound here, Cc1cnc2c(c1)c(C(N)=O)c(N)n2-c1c(C)ncc(O)c1C , and I need its recorded IC50. 100 to 1000 nM

Request: Cc1ccc(O)c(C)c1-n1c(N)c(C(N)=O)c2cncnc21 50 to 100 nM

Request: CCc1ncc2c(C(N)=O)c(N)n(-c3c(C)ccc(O)c3C)c2c1F < 50 nM

Reference for the values: patent US20250388583A1
